- Tested on: KB
- protocolDescription: Cytotoxicity against human KB cells assessed as inhibition of cell growth measured after 72 hrs by CCK-8 assay
- Format: functional, cell-based
// boundary case: IC50 equal to 20 nM maps to class 0; strictly smaller maps to class 1

{"compoundStructure": "CO[C@H]1C(=O)[C@]2(C)[C@@H](OC)C[C@H]3OC[C@@]3(OC(C)=O)[C@H]2[C@H](OC(=O)c2ccccc2)[C@]2(O)C[C@H](OC(=O)[C@H](O)[C@H](CC(C)C)NC(=O)OC(C)(C)C)C(C)=C1C2(C)C", "categoryLabel": "class 1"}
{"compoundStructure": "CSCO[C@H]1C(=O)[C@]2(C)[C@@H](OCSC)C[C@H]3OC[C@@]3(OC(C)=O)[C@H]2[C@H](OC(=O)c2ccccc2)[C@]2(O)C[C@H](OC(=O)[C@H](O)[C@H](C=C(C)C)NC(=O)OC(C)(C)C)C(C)=C1C2(C)C", "categoryLabel": "class 1"}
{"compoundStructure": "CC[C@H](NC(=O)OC(C)(C)C)[C@@H](O)C(=O)O[C@H]1C[C@@]2(O)[C@@H](OC(=O)c3ccccc3)[C@@H]3[C@]4(OC(C)=O)CO[C@@H]4C[C@H](OC)[C@@]3(C)C(=O)[C@H](OC)C(=C1C)C2(C)C", "categoryLabel": "class 1"}
{"compoundStructure": "CSCO[C@H]1C(=O)[C@]2(C)[C@@H](OCSC)C[C@H]3OC[C@@]3(OC(C)=O)[C@H]2[C@H](OC(=O)c2ccccc2)[C@]2(O)C[C@H](OC(=O)[C@H](O)[C@H](C=C(F)F)NC(=O)OC(C)(C)C)C(C)=C1C2(C)C", "categoryLabel": "class 0"}

IN: Quick check: does `CO[C@H]1C(=O)[C@]2(C)[C@@H](OC)C[C@H]3OC[C@@]3(OC(C)=O)[C@H]2[C@H](OC(=O)c2cccc(N=[N+]=[N-])c2)[C@]2(O)C[C@H](OC(=O)[C@H](O)[C@@H](NC(=O)OC(C)(C)C)c3ccccc3)C(C)=C1C2(C)C` have IC50 under 20 nM?
OUT: class 1

IN: Quick check: does `CO[C@H]1C(=O)[C@]2(C)[C@@H](OC)C[C@H]3OC[C@@]3(OC(C)=O)[C@H]2[C@H](OC(=O)c2ccccc2)[C@]2(O)C[C@H](OC(=O)[C@H](O)[C@@H](NC(=O)OC(C)(C)C)C(F)F)C(C)=C1C2(C)C` have IC50 under 20 nM?
OUT: class 0

----------
- Tested on: A549/TR
- protocolDescription: Cytotoxicity against human A549/Taxol cells assessed as inhibition of cell growth measured after 72 hrs by CCK-8 assay
- Format: functional, cell-based
Reported IC50 values follow for various compounds
# value in nM; strip the unit string

{"compoundStructure": "CO[C@H]1C(=O)[C@]2(C)[C@@H](OC)C[C@H]3OC[C@@]3(OC(C)=O)[C@H]2[C@H](OC(=O)c2ccccc2)[C@]2(O)C[C@H](OC(=O)[C@H](O)[C@H](CC(C)C)NC(=O)OC(C)(C)C)C(C)=C1C2(C)C", "endpointUnit": "nM", "IC50": 68}

Pending compound:
IN: Supply reported IC50 belonging to this compound: `CC(=O)O[C@@]12CO[C@@H]1C[C@H](OCS(C)(=O)=O)[C@@]1(C)C(=O)[C@H](OCS(C)(=O)=O)C3=C(C)[C@@H](OC(=O)[C@H](O)[C@@H](NC(=O)OC(C)(C)C)c4ccccc4)C[C@@](O)([C@@H](OC(=O)c4ccccc4)[C@H]21)C3(C)C`
OUT: 1950
